# Tested on: COR-L23 (Non-Small Cell Lung Carcinoma)
# measurement-description: combination Emax (second highest fraction inhibited in the dose matrix, 72 h); higher = more inhibition; extreme values may be limits of the assay
The compounds listed here are annotated with their combination Emax.
Just the number, please, no unit attached.

Completed entries (count: 3):
compound	combination Emax
CC(=O)c1c(C)c2cnc(Nc3ccc(N4CCNCC4)cn3)nc2n(C2CCCC2)c1=O [Palbociclib] + CC1(C)CCC(CN2CCN(c3ccc(C(=O)NS(=O)(=O)c4ccc(NCC5CCOCC5)c([N+](=O)[O-])c4)c(Oc4cnc5[nH]ccc5c4)c3)CC2)=C(c2ccc(Cl)cc2)C1 [Venetoclax] (first compound max 10 µM, 7x7, partner max 1 µM)	0.106
COc1nnc2ccc(N3CCC(c4ccc(OCCN5CCN(C)C(=O)[C@H]5C)cc4)CC3)nn12 [AZD5153] + CN(CC[C@H](CSC1=CC=CC=C1)NC2=C(C=C(C=C2)S(=O)(=O)NC(=O)C3=CC=C(C=C3)N4CCC(CC4)[C@H](C5=CC=CC=C5C6=CC=C(C=C6)Cl)O)S(=O)(=O)C(F)(F)F)CCO [AZD4320] (first compound max 1 µM, 7x7, partner max 1 µM)	0.424
C[C@@H](c1ccc2nccn2c1)n1nnc2ncc(-c3cnn(C)c3)nc21 [Savolitinib] + Cc1c2c(nn1C)CSCc1cc(n(C)n1)CSc1cc(c3ccccc3c1)OCCCc1c(C(=O)O)n(C)c3c-2c(Cl)ccc13 [AZD5991] (first compound max 1 µM, 7x7, partner max 1 µM)	0.142

[ask] What measured combination Emax goes with CN(C)CCCOc1ccc(-c2ccc3ncc4c(c3c2)n(C2CCOCC2)c(=O)n4C)cn1 [AZD0156] + CCN(CCO)CCCOc1ccc2c(Nc3cc(CC(=O)Nc4cccc(F)c4)[nH]n3)ncnc2c1 [AZD2811] (first compound max 1 µM, 7x7, partner max 1 µM) ?
[reply] 0.116

[ask] Next entry: COc1cccc(OCCCN)c1-c1cc(Nc2cnc(C#N)cn2)n[nH]1 [Prexasertib] + C=CCn1c(=O)c2cnc(Nc3ccc(N4CCN(C)CC4)cc3)nc2n1-c1cccc(C(C)(C)O)n1 [AZD1775] (first compound max 1 µM, partner max 1 µM)
[reply] 0.652

[ask] Next entry: C[C@@H]1COCCN1c1cc(C2([S@](C)(=N)=O)CC2)nc(-c2ccnc3[nH]ccc23)n1 [AZD6738] + O=C(c1cc(Cc2n[nH]c(=O)c3ccccc23)ccc1F)N1CCN(C(=O)C2CC2)CC1 [Olaparib] (first compound max 10 µM, 7x7, partner max 10 µM)
[reply] 0.42

[ask] Next entry: CN(C)CCCOc1ccc(-c2ccc3ncc4c(c3c2)n(C2CCOCC2)c(=O)n4C)cn1 [AZD0156] + C[C@@H]1COCCN1C2=NC(=NC(=C2)C3(CC3)[S@](=N)(=O)C)C4=C5C=CNC5=NC=C4 [AZD6738] (first compound max 1 µM, 7x7, partner max 10 µM)
[reply] 0.687

[ask] Next entry: NC1(C(=O)N[C@@H](CCO)c2ccc(Cl)cc2)CCN(c2ncnc3[nH]ccc23)CC1 [Capivasertib] + C[C@@H]1COCCN1C2=NC(=NC(=C2)C3(CC3)[S@](=N)(=O)C)C4=C5C=CNC5=NC=C4 [AZD6738] (first compound max 10 µM, 7x7, partner max 10 µM)
[reply] 0.707

* * *

The molecules listed here are annotated with their combination Emax.
# System: SNU-C5 (Colorectal Carcinoma)
# measurement-description: combination Emax (second highest fraction inhibited in the dose matrix, 72 h); higher = more inhibition; extreme values may be limits of the assay
Just the number, please, no unit attached.

Completed entries (count: 3):
molecule	value
CC1(C)CCC(CN2CCN(c3ccc(C(=O)NS(=O)(=O)c4ccc(NCC5CCOCC5)c([N+](=O)[O-])c4)c(Oc4cnc5[nH]ccc5c4)c3)CC2)=C(c2ccc(Cl)cc2)C1 [Venetoclax] + Cc1cc2ncnn2cc1Nc1ncc2c(n1)n(C1CCOCC1)c(=O)n2C [AZD7648] (first compound max 1 µM, 7x7, partner max 10 µM)	0.261
Cc1cc2ncnn2cc1Nc1ncc2c(n1)n(C1CCOCC1)c(=O)n2C [AZD7648] + CCN(CCO)CCCOc1ccc2c(Nc3cc(CC(=O)Nc4cccc(F)c4)[nH]n3)ncnc2c1 [AZD2811] (first compound max 10 µM, 7x7, partner max 1 µM)	0.295
Cc1cc2ncnn2cc1Nc1ncc2c(n1)n(C1CCOCC1)c(=O)n2C [AZD7648] + C=CCn1c(=O)c2cnc(Nc3ccc(N4CCN(C)CC4)cc3)nc2n1-c1cccc(C(C)(C)O)n1 [AZD1775] (first compound max 10 µM, partner max 1 µM)	0.609

Proceeding to the next molecule to report its combination Emax.
[ask] What measured combination Emax goes with CN(CCO)CC[C@H](CSc1ccccc1)Nc1ccc(S(=O)(=O)NC(=O)c2ccc(N3CCC([C@@H](O)c4ccccc4-c4ccc(Cl)cc4)CC3)cc2)cc1S(=O)(=O)C(F)(F)F [AZD4320] + Cc1cc2ncnn2cc1Nc1ncc2c(n1)n(C1CCOCC1)c(=O)n2C [AZD7648] (first compound max 1 µM, 7x7, partner max 10 µM) ?
[reply] 0.225

* * *

# Tested on: TE-5 (Esophageal Squamous Cell Carcinoma)
# measurement-description: combination Emax (second highest fraction inhibited in the dose matrix, 72 h); higher = more inhibition; extreme values may be limits of the assay
reported-property: combination Emax
Just the number, please, no unit attached.

compound	target-or-system	combination Emax
CC1(C)CCC(CN2CCN(c3ccc(C(=O)NS(=O)(=O)c4ccc(NCC5CCOCC5)c([N+](=O)[O-])c4)c(Oc4cnc5[nH]ccc5c4)c3)CC2)=C(c2ccc(Cl)cc2)C1 [Venetoclax] + C1CN(CCC1(C(=O)N[C@@H](CCO)C2=CC=C(C=C2)Cl)N)C3=NC=NC4=C3C=CN4 [Capivasertib] (first compound max 1 µM, 7x7, partner max 3 µM)	TE-5 (Esophageal Squamous Cell Carcinoma)	0.255

[ask] What measured combination Emax goes with C=CCn1c(=O)c2cnc(Nc3ccc(N4CCN(C)CC4)cc3)nc2n1-c1cccc(C(C)(C)O)n1 [AZD1775] + C1CN(CCC1(C(=O)N[C@@H](CCO)C2=CC=C(C=C2)Cl)N)C3=NC=NC4=C3C=CN4 [Capivasertib] (first compound max 3 µM, partner max 3 µM) ?
[reply] 0.66

[ask] Next entry: Cc1c2c(nn1C)CSCc1cc(n(C)n1)CSc1cc(c3ccccc3c1)OCCCc1c(C(=O)O)n(C)c3c-2c(Cl)ccc13 [AZD5991] + C=CCn1c(=O)c2cnc(Nc3ccc(N4CCN(C)CC4)cc3)nc2n1-c1cccc(C(C)(C)O)n1 [AZD1775] (first compound max 1 µM, partner max 1 µM)
[reply] 0.536

* * *

# Tested on: J82 (Bladder Carcinoma)
# measurement-description: combination Emax (second highest fraction inhibited in the dose matrix, 72 h); higher = more inhibition; extreme values may be limits of the assay
The molecules listed here are annotated with their combination Emax.
Just the number, please, no unit attached.

Completed entries (count: 2):
molecule	combination Emax
CC1(C)CCC(CN2CCN(c3ccc(C(=O)NS(=O)(=O)c4ccc(NCC5CCOCC5)c([N+](=O)[O-])c4)c(Oc4cnc5[nH]ccc5c4)c3)CC2)=C(c2ccc(Cl)cc2)C1 [Venetoclax] + C[C@@H]1COCCN1C2=NC(=NC(=C2)C3(CC3)[S@](=N)(=O)C)C4=C5C=CNC5=NC=C4 [AZD6738] (first compound max 1 µM, 7x7, partner max 10 µM)	0.483
CC(=O)c1c(C)c2cnc(Nc3ccc(N4CCNCC4)cn3)nc2n(C2CCCC2)c1=O [Palbociclib] + Cn1cnc2c(F)c(Nc3ccc(Br)cc3Cl)c(C(=O)NOCCO)cc21 [Selumetinib] (first compound max 10 µM, 7x7, partner max 10 µM)	0.138

Proceeding to the next molecule to report its combination Emax.
[ask] What measured combination Emax goes with CN(CCO)CC[C@H](CSc1ccccc1)Nc1ccc(S(=O)(=O)NC(=O)c2ccc(N3CCC([C@@H](O)c4ccccc4-c4ccc(Cl)cc4)CC3)cc2)cc1S(=O)(=O)C(F)(F)F [AZD4320] + Cn1cnc2c(F)c(Nc3ccc(Br)cc3Cl)c(C(=O)NOCCO)cc21 [Selumetinib] (first compound max 1 µM, 7x7, partner max 3 µM) ?
[reply] 0.245

* * *

# System: SW756 (Cervical Carcinoma)
# measurement-description: combination Emax (second highest fraction inhibited in the dose matrix, 72 h); higher = more inhibition; extreme values may be limits of the assay
reported-property: combination Emax
Just the number, please, no unit attached.

compound	reported-property	value
CN(CCO)CC[C@H](CSc1ccccc1)Nc1ccc(S(=O)(=O)NC(=O)c2ccc(N3CCC([C@@H](O)c4ccccc4-c4ccc(Cl)cc4)CC3)cc2)cc1S(=O)(=O)C(F)(F)F [AZD4320] + C[C@@H](Nc1cc(F)cc(F)c1)c1cc(C(=O)N(C)C)cc2c(=O)cc(N3CCOCC3)oc12 [AZD8186] (first compound max 1 µM, 7x7, partner max 3 µM)	combination Emax	0.373
CN(CCO)CC[C@H](CSc1ccccc1)Nc1ccc(S(=O)(=O)NC(=O)c2ccc(N3CCC([C@@H](O)c4ccccc4-c4ccc(Cl)cc4)CC3)cc2)cc1S(=O)(=O)C(F)(F)F [AZD4320] + C=CCn1c(=O)c2cnc(Nc3ccc(N4CCN(C)CC4)cc3)nc2n1-c1cccc(C(C)(C)O)n1 [AZD1775] (first compound max 1 µM, partner max 1 µM)	combination Emax	0.399

Proceeding to the next compound to report its combination Emax.
[ask] So what combination Emax did Cc1c2c(nn1C)CSCc1cc(n(C)n1)CSc1cc(c3ccccc3c1)OCCCc1c(C(=O)O)n(C)c3c-2c(Cl)ccc13 [AZD5991] + C=CCn1c(=O)c2cnc(Nc3ccc(N4CCN(C)CC4)cc3)nc2n1-c1cccc(C(C)(C)O)n1 [AZD1775] (first compound max 1 µM, partner max 1 µM) get with SW756 (Cervical Carcinoma)?
[reply] 0.427
